Molecular target: endogenous NAMPT (Homo sapiens, UniProt P43490)
Construct: stimulate the endogenous NAMPT in a native cellular environment; endogenous in cells
Experiment: Cellular NAD+ modulation assay in SH-SY5Y cells
Details: doxorubicin, 40 hours
Method: The compounds described herein were also assayed for their ability to stimulate the endogenous NAMPT in a native cellular environment in the cellular NAD+ modulation assay, which measures the ability of the compound to modulate cellular NAD levels. Increased levels of NAD are expected by compounds that permeate the cells and activate the catalytic activity of the endogenous NAMPT. […]
Measured pEC50 values are reported for all entries that follow.
# pEC50 is unitless: minus log10 of the molar concentration; print number only

For record `COc1ccc(CNC(=O)Nc2ccc(CN3CCN(CC(C)(C)O)CC3)cc2)cc1` the listed pEC50 is 6.10

For record `CC(C)(O)CN1CCN(Cc2ccc(NC(=O)NCc3ccc(Cl)cc3)cc2)CC1` the listed pEC50 is 6.80

For record CC(C)(O)CN1CCN(Cc2ccc(NC(=O)NCc3ccccc3)cc2)CC1 [Comparator A, reference compound] the listed pEC50 is 5.64

For record `CC(C)(O)CN1CCN(Cc2ccc(NC(=O)NCc3ccc(F)cc3)cc2)CC1` the listed pEC50 is 5.85

----------
Target: human NAMPT (Homo sapiens, UniProt P43490)
Sequence (P43490 whole entry): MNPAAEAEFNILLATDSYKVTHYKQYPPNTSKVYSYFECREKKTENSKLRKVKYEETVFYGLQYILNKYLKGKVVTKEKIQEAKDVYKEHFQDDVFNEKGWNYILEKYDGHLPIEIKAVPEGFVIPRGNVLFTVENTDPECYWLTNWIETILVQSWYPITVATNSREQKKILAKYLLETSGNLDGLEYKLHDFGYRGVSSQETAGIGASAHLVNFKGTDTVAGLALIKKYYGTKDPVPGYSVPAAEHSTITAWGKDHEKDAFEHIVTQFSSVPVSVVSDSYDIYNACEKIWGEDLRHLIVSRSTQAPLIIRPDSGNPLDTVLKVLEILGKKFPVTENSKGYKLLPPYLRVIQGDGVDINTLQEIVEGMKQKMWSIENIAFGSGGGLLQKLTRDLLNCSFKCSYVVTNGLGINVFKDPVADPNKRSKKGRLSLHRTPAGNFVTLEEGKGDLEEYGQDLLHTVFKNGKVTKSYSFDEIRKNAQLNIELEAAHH
Experiment: Human recombinant enzyme assay (NMN fluorescence biochemical assay)
Details: recombinant human NAMPT, NMN fluorescence, 60 min
pEC50: −log10 of the molar value.
Decision: pEC50 >= 5 yields satisfied, all other cases yield not satisfied.

Q: Is it the case that CC(C)(O)CN1CCN(Cc2ccc(NC(=O)NCc3cnco3)cc2)CC1 [Comparator D, reference compound] has pEC50 reaching or exceeding 5?
A: not satisfied

Next:
Q: Is it the case that CC(C)(O)CN1CCN(Cc2ccc(NC(=O)NCc3ccncc3)cc2)CC1 [Comparator B, reference compound] has pEC50 reaching or exceeding 5?
A: not satisfied

Q: Is it the case that CC(C)(O)CN1CCN(Cc2ccc(NC(=O)NCc3ccc(Cl)cc3)cc2)CC1 [Compound 36] has pEC50 reaching or exceeding 5?
A: satisfied

Q: Is it the case that CC(C)(O)CN1CCN(Cc2ccc(NC(=O)NCc3cn[nH]c3)cc2)CC1 [Comparator C, reference compound] has pEC50 reaching or exceeding 5?
A: not satisfied

----------
Molecular target: endogenous NAMPT (Homo sapiens, UniProt P43490)
Construct: stimulate the endogenous NAMPT in a native cellular environment; endogenous in cells
Assay: Cellular NAD+ modulation assay in SH-SY5Y cells
Conditions: doxorubicin, 40 hours
Assay readout: EC50

// below: answered molecules
Value (EC50, endogenous NAMPT (Homo sapiens, UniProt P43490)) for record CC(C)(O)CN1CCN(Cc2ccc(NC(=O)NCc3ccncc3)cc2)CC1 [Comparator B, reference compound] = > 20.1 µM

Value (EC50, endogenous NAMPT (Homo sapiens, UniProt P43490)) for record CC(C)(O)CN1CCN(Cc2ccc(NC(=O)NCc3cnco3)cc2)CC1 [Comparator D, reference compound] = > 20.1 µM

Pending molecule:
Value (EC50, endogenous NAMPT (Homo sapiens, UniProt P43490)) for record CC(C)(O)CN1CCN(Cc2ccc(NC(=O)NCc3cn[nH]c3)cc2)CC1 [Comparator C, reference compound] = > 20.1 µM

----------
Measured pEC50 values are reported for all entries that follow.
Target: human NAMPT (Homo sapiens)
Test: Human recombinant enzyme assay (NMN fluorescence biochemical assay)
Settings: recombinant human NAMPT, NMN fluorescence, 60 min
Method: Compounds described herein were assayed for their ability to stimulate the synthesis of nicotinamide mononucleotide (NMN) by the enzyme NAMPT. […] Dose responses were measured using an assay to detect the formation of nicotinamide mono-nucleotide. […] The plates were read for fluorescence (Excitation/Emission=355 nm/460 nm) using an EnVision plate reader after 40 mins of incubation at ambient temperature.
# pEC50 is unitless: minus log10 of the molar concentration; print number only

For record `CC(C)(O)CN1CCN(Cc2ccc(NC(=O)NCc3ccc(F)cc3)cc2)CC1` the listed pEC50 is 5.12

Next:
For record `COc1ccc(CNC(=O)Nc2ccc(CN3CCN(CC(C)(C)O)CC3)cc2)cc1` the listed pEC50 is 4.97

For record CC(C)(O)CN1CCN(Cc2ccc(NC(=O)NCc3ccccc3)cc2)CC1 [Comparator A, reference compound] the listed pEC50 is 4.97

All figures here come from patent US20230133132A1.
